Tested on: SK-MEL-2 melanoma
Assay: NCI tumour cell line growth inhibition, 48 h
*1 amine or outer side, *2 acyl side, *3 side chain or, on linkers, in order; H or OH if unused. Where a SMILES comes first, the peptide text is derived from it. [ ]: non-standard residue; d: D form. ξ: configuration not given here. X22 = O=C(C(CC(O)CO)O[*:1])[*:2]; Ile(3ξ) = CCC(C)[C@H](N)C(=O)O; NMeV = CN[C@H](C(=O)O)C(C)C; NMeA = CN[C@@H](C)C(=O)O; βAla = NCCC(=O)O
Measured Parameter: TGI

O=C1NC(=N[C@H](CO)c2ccccc2)S/C1=C\c1ccc2ncccc2c1
14.3 µM
CCC(C)[C@@H]1NC(=O)[C@@H]2CCCN2C(=O)C(CC(O)CO)OC(=O)CCNC(=O)[C@H](C)N(C)C(=O)[C@H](C(C)C)N(C)C1=O (some centres undefined) (cyclo([Ile(3ξ)][NMeV][NMeA][βAla][X22]P))
> 100 µM
N=C1/C(=C2\Nc3ccccc3S2)CC(=O)N1c1ccc(SC(F)F)cc1
> 100 µM

Give its TGI value. Item: CSc1nc(Br)nc2ncn(C3CC(Oc4ccc(C)cc4)C(COc4ccc(C)cc4)O3)c12 (centres undefined)
> 100 µM

The reported numbers originate from PubChem BioAssay (NCI).
